UniProt P49840 measurements of IC50, listed per entry.
Sequence (P49840 whole entry): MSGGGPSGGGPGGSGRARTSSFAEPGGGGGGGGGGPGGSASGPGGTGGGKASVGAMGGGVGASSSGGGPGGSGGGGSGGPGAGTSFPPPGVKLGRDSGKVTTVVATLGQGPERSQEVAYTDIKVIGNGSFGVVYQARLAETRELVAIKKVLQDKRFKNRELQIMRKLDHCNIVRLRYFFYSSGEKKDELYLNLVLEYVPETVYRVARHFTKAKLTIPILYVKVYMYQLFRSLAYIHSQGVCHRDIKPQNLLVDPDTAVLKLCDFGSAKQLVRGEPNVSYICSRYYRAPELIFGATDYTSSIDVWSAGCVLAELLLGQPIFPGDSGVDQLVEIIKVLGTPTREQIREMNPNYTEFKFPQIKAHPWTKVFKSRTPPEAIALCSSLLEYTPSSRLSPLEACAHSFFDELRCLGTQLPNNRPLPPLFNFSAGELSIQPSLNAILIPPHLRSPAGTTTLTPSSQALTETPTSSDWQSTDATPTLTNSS

Before answering, review these 5 worked examples.
molecule: CC[C@@]1(c2cccc(-c3cnn(C)c3C)c2)C2=CN=NC2NC2=C1C(=O)NC(C)(C)C2 (stereo partly drawn)
IC50: < 100 nM
//
molecule: CCC1(c2ccccc2)C2=C(N=NC2)NC2=C1C(=O)CSC2 (stereo not drawn)
IC50: 1000 to 5000 nM
//
molecule: C[C@H]1CC[C@]2(C1)C1=C(N=NC1)NC1=C2C(=O)CC(C)(C)C1
IC50: < 100 nM
//
molecule: CC[C@]1(c2cccc(-c3ccnc4c3CCCC4)c2)C2=CN=NC2NC2=C1C(=O)CC(C)(C)C2 (stereo partly drawn)
IC50: 1000 to 5000 nM
//
molecule: CC[C@@]1(c2cccc(S(C)(=O)=O)c2)C2=CN=NC2NC2=C1C(=O)NC(C)(C)C2 (stereo partly drawn)
IC50: < 100 nM

Entry CC1(C)CC(=O)C2=C(C1)NC1=C(CN=N1)C21CN(C2COC2)C1 ; assay system UniProt P49840; IC50 recorded at 100 to 1000 nM

Entry CC[C@]1(c2cccc(-c3c(C)nn(C)c3C)c2)C2=C(CC(C)(C)NC2=O)NC2N=NC(C)=C21 (stereo partly drawn) ; assay system UniProt P49840; IC50 recorded at 100 to 1000 nM

Entry CC[C@]1(c2cccc(CN(C)c3ccc(C(F)(F)F)nc3)c2)C2=CN=NC2NC2=C1C(=O)CC(C)(C)C2 (stereo partly drawn) ; assay system UniProt P49840; IC50 recorded at > 5000 nM

Entry Cc1ccc(S(=O)(=O)N2CCC3(CC2)C2=C(N=NC2)NC2=C3C(=O)CC(C)(C)C2)cc1 ; assay system UniProt P49840; IC50 recorded at < 100 nM

###

Glycogen synthase kinase-3 beta (Homo sapiens, UniProt P49841) measurements of IC50, listed per entry.
Sequence (P49841 whole entry): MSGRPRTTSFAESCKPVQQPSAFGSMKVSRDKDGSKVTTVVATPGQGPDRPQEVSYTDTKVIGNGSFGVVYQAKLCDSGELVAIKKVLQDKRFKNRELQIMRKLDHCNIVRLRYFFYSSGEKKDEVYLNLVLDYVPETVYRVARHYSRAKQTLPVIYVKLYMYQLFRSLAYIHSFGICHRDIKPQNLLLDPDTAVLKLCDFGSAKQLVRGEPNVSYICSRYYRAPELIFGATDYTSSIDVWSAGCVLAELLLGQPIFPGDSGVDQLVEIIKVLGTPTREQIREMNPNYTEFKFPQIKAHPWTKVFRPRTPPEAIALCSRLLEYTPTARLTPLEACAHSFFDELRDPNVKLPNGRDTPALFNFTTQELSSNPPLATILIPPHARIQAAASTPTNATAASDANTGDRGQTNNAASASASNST

compound: CC[C@]1(c2cccc(-c3ccnc4cnccc34)c2)C2=CN=NC2NC2=C1C(=O)NC(C)(C)C2 (stereo partly specified)
system: Glycogen synthase kinase-3 beta (Homo sapiens, UniProt P49841)
value_reported: > 5000 nM

Entry CC[C@]1(c2ccccc2)C2=CN=NC2NC2=C1C(=O)[C@H](F)C(C)(C)C2 (stereo partly specified) ; assay system Glycogen synthase kinase-3 beta (Homo sapiens, UniProt P49841); IC50 recorded at 100 to 1000 nM

Entry C[C@H]1CCC[C@@]2(C1)C1=C(N=NC1)NC1=C2C(=O)CC(C)(C)C1 ; assay system Glycogen synthase kinase-3 beta (Homo sapiens, UniProt P49841); IC50 recorded at 100 to 1000 nM

Entry CC[C@@]1(c2cccc([C@@H](C)c3ncccn3)c2)C2=CN=NC2NC2=C1C(=O)CC(C)(C)C2 (stereo partly specified) ; assay system Glycogen synthase kinase-3 beta (Homo sapiens, UniProt P49841); IC50 recorded at 1000 to 5000 nM

Entry CCC1(c2cccc(C3CC4CCC(C3)O4)c2)C2=CN=NC2NC2=C1C(=O)CC(C)(C)C2 (stereo unspecified) ; assay system Glycogen synthase kinase-3 beta (Homo sapiens, UniProt P49841); IC50 recorded at 100 to 1000 nM

Entry CCC1(c2cccc(-c3ccnc(C)c3F)c2)C2=CN=NC2NC2=C1C(=O)CC(C)(C)C2 (stereo unspecified) ; assay system Glycogen synthase kinase-3 beta (Homo sapiens, UniProt P49841); IC50 recorded at 100 to 1000 nM
